method description: in vitro
experimental setup: human
Structures can show the parent of a compound that is named as a salt.
endpoint label: viability at 6 days, 10 µM (%)
Numeric answer only, unit % assumed.

| molecule | viability at 6 days, 10 µM, % |
| --- | --- |
| COc1ncccc1-c1cnn2ccc(N3CCN(C(=O)OC4(C)COC4)CC3)nc12 [Compound 1] | 117 |

Consider now this further molecule.
Recorded viability at 6 days, 10 µM for CCN(CC)CCNC(=O)c1c(C)[nH]c(/C=C2\C(=O)Nc3ccc(F)cc32)c1C [Sunitinib maleate, sunitinib malate] , please?
72

###

method description: in vitro
experimental setup: human
Counter-ions that a name gives are not always drawn.
endpoint label: viability at 6 days, 0.37 µM (%)
Supply the numeric figure in %, leaving out any unit text.

| molecule | measured |
| --- | --- |
| COc1ncccc1-c1cnn2ccc(N3CCN(C(=O)OC4(C)COC4)CC3)nc12 | 88.8 |

Lab note: next molecule to report on.
Can you share its viability at 6 days, 0.37 µM? I mean this molecule: CCN(CC)CCNC(=O)c1c(C)[nH]c(/C=C2\C(=O)Nc3ccc(F)cc32)c1C [Sunitinib maleate, sunitinib malate]
101
